Listed here: items and their measured relative cell viability.
system: HCC1937; assay: relative cell viability, compound + erastin, vs DMSO (fraction of DMSO control); higher = less growth inhibition; conditions: 72 h;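 also: viability read by CCK-8 kit in 96-well plates, part of a combination screen pairing lipid-metabolism-targeting compounds with erastin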
Counter-ions that a name gives are not always drawn.
Keep the answer to the number alone.

Below: 5 compounds and their reported relative cell viability.
compound	relative cell viability
CN(C)c1cccc(-c2c3c(=O)n(-c4ccccc4Cl)[nH]c3cc(=O)n2C)c1 + CCOc1ccccc1-n1c(C(C)N2CCN(C(=O)COc3ccc(Cl)cc3)CC2)nc2ccccc2c1=O [erastin]	0.61
O=C1/C(=C/c2cccs2)CC/C1=C\c1cccs1 + CCOc1ccccc1-n1c(C(C)N2CCN(C(=O)COc3ccc(Cl)cc3)CC2)nc2ccccc2c1=O [erastin]	0.514
Oc1ccc2c(c1)OCO2 [Sesamol] + CCOc1ccccc1-n1c(C(C)N2CCN(C(=O)COc3ccc(Cl)cc3)CC2)nc2ccccc2c1=O [erastin]	0.489
Cc1coc2c1C(=O)C(=O)c1c-2ccc2c(C)cccc12 [Tanshinone I] + CCOc1ccccc1-n1c(C(C)N2CCN(C(=O)COc3ccc(Cl)cc3)CC2)nc2ccccc2c1=O [erastin]	0.226
C/C=C(\CC[C@@H](C)[C@H]1CC[C@H]2[C@@H]3CC=C4C[C@@H](O)CC[C@]4(C)[C@H]3CC[C@]12C)C(C)C [Fucosterol] + CCOc1ccccc1-n1c(C(C)N2CCN(C(=O)COc3ccc(Cl)cc3)CC2)nc2ccccc2c1=O [erastin]	0.685

Query: Form field - read-out: relative cell viability; system: HCC1937; submitted item: CN1CCN(c2ccc(/C=C(\C#N)c3ccccc3Br)cc2)CC1 [DG172 (dihydrochloride)] + CCOc1ccccc1-n1c(C(C)N2CCN(C(=O)COc3ccc(Cl)cc3)CC2)nc2ccccc2c1=O [erastin]
Result: 0.672

Query: Form field - read-out: relative cell viability; system: HCC1937; submitted item: CC(O)(CC(=O)O)CC(=O)O [Meglutol] + CCOc1ccccc1-n1c(C(C)N2CCN(C(=O)COc3ccc(Cl)cc3)CC2)nc2ccccc2c1=O [erastin]
Result: 0.708

Query: Form field - read-out: relative cell viability; system: HCC1937; submitted item: C[C@H](CCC(=O)O)[C@H]1CC[C@H]2[C@@H]3C[C@H](O)[C@@H]4C[C@H](O)CC[C@]4(C)[C@H]3CC[C@]12C [Hyodeoxycholic acid] + CCOc1ccccc1-n1c(C(C)N2CCN(C(=O)COc3ccc(Cl)cc3)CC2)nc2ccccc2c1=O [erastin]
Result: 0.767

Query: Form field - read-out: relative cell viability; system: HCC1937; submitted item: O=C1c2cccc(O)c2C(=O)c2c(O)cccc21 [Antrapurol] + CCOc1ccccc1-n1c(C(C)N2CCN(C(=O)COc3ccc(Cl)cc3)CC2)nc2ccccc2c1=O [erastin]
Result: 0.735

Query: Form field - read-out: relative cell viability; system: HCC1937; submitted item: O=C(O)Cc1cccc(OCCCN(Cc2cccc(C(F)(F)F)c2Cl)CC(c2ccccc2)c2ccccc2)c1 + CCOc1ccccc1-n1c(C(C)N2CCN(C(=O)COc3ccc(Cl)cc3)CC2)nc2ccccc2c1=O [erastin]
Result: 0.855

----------
Listed here: items and their measured relative cell viability.
system: HCC1937; test: relative cell viability, compound + erastin, vs DMSO (fraction of DMSO control); higher = less growth inhibition; details: 72 h
Keep the answer to the number alone.

molecule	relative cell viability
COc1cccc(-n2c(=O)[nH]c3cc(Cl)n(-c4ccc(-c5cccc(OC)c5O)cc4)c3c2=O)c1 + CCOc1ccccc1-n1c(C(C)N2CCN(C(=O)COc3ccc(Cl)cc3)CC2)nc2ccccc2c1=O	0.66
O=C(c1c2ccccc2cc2ccccc12)N1CCC(N2CCC[C@@H](C(=O)N3CCOCC3)C2)CC1 + CCOc1ccccc1-n1c(C(C)N2CCN(C(=O)COc3ccc(Cl)cc3)CC2)nc2ccccc2c1=O	0.514
CCCc1cc(-c2nc(-c3ccc(NS(C)(=O)=O)cc3)cs2)ccn1 + CCOc1ccccc1-n1c(C(C)N2CCN(C(=O)COc3ccc(Cl)cc3)CC2)nc2ccccc2c1=O	0.394
O=C(O)CCCc1cc2cc(Cl)ccc2n1S(=O)(=O)c1ccc2ncsc2c1 [Lanifibranor] + CCOc1ccccc1-n1c(C(C)N2CCN(C(=O)COc3ccc(Cl)cc3)CC2)nc2ccccc2c1=O	0.672
CC1=C(/C=C/C(C)=C/C=C/C(C)=C/C=C/C=C(C)/C=C/C=C(C)/C=C/C2=C(C)C(=O)[C@@H](O)CC2(C)C)C(C)(C)C[C@H](O)C1=O [Astaxanthin] + CCOc1ccccc1-n1c(C(C)N2CCN(C(=O)COc3ccc(Cl)cc3)CC2)nc2ccccc2c1=O	0.674

Query: What does the record list as relative cell viability for CCCc1cc(-c2nc(-c3ccc(C)cc3)cs2)ccn1 [Fatostatin] + CCOc1ccccc1-n1c(C(C)N2CCN(C(=O)COc3ccc(Cl)cc3)CC2)nc2ccccc2c1=O ?
Result: 0.534

Query: What does the record list as relative cell viability for O=C(O)C(O)Cc1ccc(O)c(O)c1 (stereo not given) [Sodium Danshensu] + CCOc1ccccc1-n1c(C(C)N2CCN(C(=O)COc3ccc(Cl)cc3)CC2)nc2ccccc2c1=O ?
Result: 0.746

Query: What does the record list as relative cell viability for O=C(NCCS(=O)(=O)c1ccc(C(F)(F)F)cn1)c1ccc(Cl)cc1 + CCOc1ccccc1-n1c(C(C)N2CCN(C(=O)COc3ccc(Cl)cc3)CC2)nc2ccccc2c1=O ?
Result: 0.511

Query: What does the record list as relative cell viability for CC(=O)c1c(C)cc2cccc(O)c2c1O [Nepodin] + CCOc1ccccc1-n1c(C(C)N2CCN(C(=O)COc3ccc(Cl)cc3)CC2)nc2ccccc2c1=O ?
Result: 0.7

Query: What does the record list as relative cell viability for O=C(O)CN(CC(=O)O)c1ccccc1OCCOc1ccccc1N(CC(=O)O)CC(=O)O + CCOc1ccccc1-n1c(C(C)N2CCN(C(=O)COc3ccc(Cl)cc3)CC2)nc2ccccc2c1=O ?
Result: 0.597

----------
tested on: HCC1937; assay: relative cell viability, compound + erastin, vs DMSO (fraction of DMSO control); higher = less growth inhibition; conditions: 72 h
Lab note: compare relative cell viability with 0.6, writing rule met if less and rule not met if equal or more.

Reference set (6 entries):
compound	category
O=C(O)c1cccnc1Nc1cccc(C(F)(F)F)c1 [Niflumic acid] + CCOc1ccccc1-n1c(C(C)N2CCN(C(=O)COc3ccc(Cl)cc3)CC2)nc2ccccc2c1=O	rule not met
O=C(O)/C=C/c1ccc(O)c(O)c1 [Caffeic Acid] + CCOc1ccccc1-n1c(C(C)N2CCN(C(=O)COc3ccc(Cl)cc3)CC2)nc2ccccc2c1=O	rule not met
O=c1ccc2cc(O)c(O)cc2o1 [Esculetin] + CCOc1ccccc1-n1c(C(C)N2CCN(C(=O)COc3ccc(Cl)cc3)CC2)nc2ccccc2c1=O	rule not met
CC(C)(Oc1ccc(C(=O)c2ccc(Cl)cc2)cc1)C(=O)O [Choline Fenofibrate] + CCOc1ccccc1-n1c(C(C)N2CCN(C(=O)COc3ccc(Cl)cc3)CC2)nc2ccccc2c1=O	rule not met
Cc1nc(Nc2cnn(C3CCNCC3)c2)nc2c1N(C)C(=O)c1cc3ccccc3cc1N2C + CCOc1ccccc1-n1c(C(C)N2CCN(C(=O)COc3ccc(Cl)cc3)CC2)nc2ccccc2c1=O	rule met
CCCCCCCCCCC[C@@H](C[C@@H]1OC(=O)[C@H]1CCCCCC)OC(=O)[C@H](CC(C)C)NC=O [Orlistat] + CCOc1ccccc1-n1c(C(C)N2CCN(C(=O)COc3ccc(Cl)cc3)CC2)nc2ccccc2c1=O	rule not met

Next, consider the following compound.
Query: Strictly below 0.6 in relative cell viability? O=C(Nc1ccc(C(O)(C(F)(F)F)C(F)(F)F)cc1)c1ccc(C(F)(F)F)cc1 + CCOc1ccccc1-n1c(C(C)N2CCN(C(=O)COc3ccc(Cl)cc3)CC2)nc2ccccc2c1=O
Result: rule met

----------
system: MDA-MB-231; assay: relative cell viability, compound + erastin, vs DMSO (fraction of DMSO control); higher = less growth inhibition; settings: 72 h
measured_attribute: relative cell viability
Keep the answer to the number alone.

Below: 3 molecules and their reported relative cell viability.
molecule	measured_attribute	value_observed
CSc1ccc(C(=O)/C=C/c2cc(C)c(OC(C)(C)C(=O)O)c(C)c2)cc1 [Elafibranor] + CCOc1ccccc1-n1c(C(C)N2CCN(C(=O)COc3ccc(Cl)cc3)CC2)nc2ccccc2c1=O	relative cell viability	0.602
O=C(Nc1ccccc1)c1cc([N+](=O)[O-])ccc1Cl + CCOc1ccccc1-n1c(C(C)N2CCN(C(=O)COc3ccc(Cl)cc3)CC2)nc2ccccc2c1=O	relative cell viability	0.706
COc1ccc2c(c1)CCC1C2CCC2(C)C(NCCCCCCN3C(=O)C=CC3=O)CCC12 (stereo not given) + CCOc1ccccc1-n1c(C(C)N2CCN(C(=O)COc3ccc(Cl)cc3)CC2)nc2ccccc2c1=O	relative cell viability	0.67

Query: Form field - read-out: relative cell viability; system: MDA-MB-231; submitted item: CN(C(=O)n1cnc(-c2ccc[n+]([O-])c2)c1)C1CCCCC1 + CCOc1ccccc1-n1c(C(C)N2CCN(C(=O)COc3ccc(Cl)cc3)CC2)nc2ccccc2c1=O
Result: 0.613

Query: Form field - read-out: relative cell viability; system: MDA-MB-231; submitted item: CC(C)(O)[C@@H]1Cc2cc3ccc(=O)oc3cc2O1 [marmesin] + CCOc1ccccc1-n1c(C(C)N2CCN(C(=O)COc3ccc(Cl)cc3)CC2)nc2ccccc2c1=O
Result: 0.646
